Assay: Free concentration and protein binding in spiked human serum samples (Table S5)
Conditions: human, serum, PB, S5b, serum of patient 17 (critically ill) spiked 200 mg/L, measured c 222 mg/L; calibration with human serum
Experimental: Subsequently, samples were mixed for 10 s, stored in an ultrasonic bath for 10 min at 40 °C, then centrifuged at 8000× g for 5 min. Next, 100 µL of the resulting supernatant was further diluted with 500 µL water with 0.1% formic acid. […] Details are described in the Supplementary Materials (Figures S1–S3). Table S5. […] In order to evaluate the (a) Spiked human serum samples of 14 patients (8 critically ill and 6 non-critically ill) after calibration with sheep serum. […]
Measured property: fraction unbound

Molecule	Measured property	Reported result
CN[C@H]1C(=O)N[C@@H]2Cc3ccc(cc3)Oc3cc4cc(c3O[C@@H]3O[C@H](C(=O)O)[C@@H](O)[C@H](O)[C@H]3NC(=O)CCCCCCCCC(C)C)Oc3ccc(cc3Cl)[C@@H](O)[C@@H]3NC(=O)[C@H](NC(=O)[C@@H]4NC(=O)[C@@H](NC2=O)c2cc(cc(O)c2Cl)Oc2cc1ccc2O)c1ccc(O)c(c1)-c1c(O[C@H]2O[C@H](CO)[C@@H](O)[C@H](O)[C@@H]2O)cc(O)cc1[C@@H](C(=O)NCCCN(C)C)NC3=O [dalbavancin, Dalbavancin]	fraction unbound	0.04
